Recorded values, source PubChem BioAssay (NCI).

System: MALME-3M melanoma
Assay: NCI-60 one-dose screen, 48 h (100 = growth as untreated, 0 = no growth, -100 = all killed)
Conditions: 10 µM unless noted
This is part of a sample that, as a whole, favours compounds with a hit. Of some 83,000 tested, about 20% had one in any assay.
Hi there, I'd appreciate the recorded growth for every entry that follows.
Give bare numbers, in %.

Guide cases for growth, answers given:
C#CCOc1cc(N(CC)CC)ccc1C(C(=O)NC(C)(C)C)N(C(=O)C1CCc2cc(F)ccc2O1)c1cc(C)cc(C)c1 (centres undefined); 59.4
Cc1sc(C(NC(=O)OCCn2c([N+](=O)[O-])cnc2C)C(F)(F)Cl)nc1-c1ccc(OC(F)(F)F)cc1 (centres undefined); -75
CC(=O)N1CCN(Cc2ccc3c(NNC(=O)c4cnccn4)nc4cc(F)ccc4n23)CC1; 30.4
CC1=C(C(=O)OC(C)C)C(c2cccc(O)c2)NC(=S)N1 (centres undefined); 92.7
O=C(CSc1nc2ccccc2c(=O)[nH]1)NCCN1CCCCC1; 97.3

I would be grateful if you could provide growth for each of the following entries.
1. N#Cc1c(-c2cccc(O)c2O)cc(-c2ccc3ccccc3c2)[nH]c1=O
2. C=CC(=O)Nc1ccc(C)c(Oc2ccc(Cl)cc2)c1
3. O=C(COc1ccc(NC(=O)Nc2ccccc2)cc1)N=Nc1c(O)[nH]c2ccc([N+](=O)[O-])cc12
4. CC(=O)Nc1cccc(Nc2nccc(N[C@@H](C)c3ccccc3)n2)c1

1: 59.1; 2: 73.8; 3: -62.7; 4: 28.7

I would be grateful if you could provide growth for each of the following entries.
1. COc1ccc2c(c1)c(-c1cc3nc(-c4cn(C)c5ncc(Br)cc45)cc(N)n3n1)cn2C
2. COc1ccc2oc(=O)c(C3(C)NC(=O)c4c(/C=C/C(=O)OC(C)(C)C)cccc4N3)cc2c1 (centres undefined)
3. CC(=O)OC[C@@]1(C)C2CC[C@]3(C)C(CC=C4C5CC(C)(C)CC[C@]5(C(=O)Nc5ccc(C)cc5)CC[C@]43C)[C@@]2(C)C[C@@H](OC(C)=O)[C@@H]1OC(C)=O (some centres undefined)
4. O=C(N=Nc1c(O)[nH]c2ccc([N+](=O)[O-])cc12)c1ccc2nc(-c3ccccc3)[nH]c2c1
5. COC(=O)/C=C/c1cccc2c1C(=O)NC(C)(c1cc3cc4ccccc4cc3oc1=O)N2 (centres undefined)
6. COc1cc(OC)cc(-c2cc3ccc(N(C)C)cc3c(=O)[nH]2)c1
7. CN1CCc2c(sc3ncnc(N/N=C/c4ccc(Cl)cc4Cl)c23)C1

1. -88.4
2. 40.5
3. 60.6
4. 30.7
5. 19.6
6. 59.3
7. -62.4

I would be grateful if you could provide growth for each of the following entries.
1. O=C1N/C(=N\c2nccs2)S/C1=C\C=C/c1ccccc1
2. O=C(Cn1nc(-c2ccccc2)ccc1=O)N/N=C/c1ccc(N2CCOCC2)cc1
3. COc1ccc(/C=C/c2nc3ccccc3c(=O)n2CC(=O)Nc2ccc(OC)cc2)cc1

[42.6, 90.1, 73.7]

###

Hi there, I'd appreciate the recorded growth for every entry that follows.
System: SR leukemia
Assay: NCI-60 one-dose screen, 48 h (100 = growth as untreated, 0 = no growth, -100 = all killed)
Settings: 10 µM unless noted
The panel holds about 83,000 compounds, 20% with a hit somewhere; the sample as a whole holds those more often. Activity calls are given as the source filed them. How the source made its calls: active means growth percent below 10; inactive means the rest.

Guide cases for growth, answers given:
CCOC(=O)/C=C/c1cccc2c1C(=O)NC(C)(c1cc3cc(Br)ccc3oc1=O)N2 (stereo not given); 27.7% (inactive)
COc1cc(C2CC(c3cc(OC)c(OC)c(OC)c3)=Nc3c(N)nc(N)nc3N2)ccc1Oc1nc(NCCO)nc(N2CCOCC2)n1 (stereo not given); 93.1% (inactive)
NS(=O)(=O)c1ccc(CCNC(=O)CSc2ccc(-c3ccc(Br)cc3)nn2)cc1; 55.9% (inactive)
N/C(=N\c1nc2ccccc2s1)NC(=O)Nc1c(Cl)cccc1Cl; 17.2% (inactive)

We now examine a further compound.
Entry `COc1ccc2[nH]cc(-c3cc(N)n4nc(-c5cn(C)c6ccccc56)cc4n3)c2c1` needs its growth filled in; supply it.
9.5% (active)
